Molecular target: MAPK14/p38α (Homo sapiens, UniProt Q16539)
Sequence (Q16539 2-360): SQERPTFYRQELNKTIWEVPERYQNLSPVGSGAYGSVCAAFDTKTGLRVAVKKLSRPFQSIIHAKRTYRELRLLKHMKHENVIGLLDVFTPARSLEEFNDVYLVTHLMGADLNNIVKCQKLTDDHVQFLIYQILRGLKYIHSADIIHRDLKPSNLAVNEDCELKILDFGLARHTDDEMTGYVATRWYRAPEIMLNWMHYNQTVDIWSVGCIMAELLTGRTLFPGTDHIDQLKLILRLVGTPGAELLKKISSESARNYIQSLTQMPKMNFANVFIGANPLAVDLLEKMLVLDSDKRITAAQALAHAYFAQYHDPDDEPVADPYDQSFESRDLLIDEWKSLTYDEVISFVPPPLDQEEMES
Assay: TR-FRET kinase assay, GFP-ATF2 ([…]-96) phosphorylation
Type: biochemical
pIC50: −log10 of the molar value.
endpoint: pIC50

(P) CC(C)(C)c1cc(NC(=O)NCc2ccccc2Oc2ccc3nc(N)sc3c2)n(-c2ccc([N+](=O)[O-])cc2)n1 [8a]
(Q) Cc1ccc(-n2nc(C(C)(C)C)cc2NC(=O)NCc2cc(F)ccc2Oc2ccc3nc(NC(=O)NC4CCCCC4)sc3c2)cc1 [9h]
(R) Cc1ccc(-n2nc(C(C)(C)C)cc2NC(=O)NCc2ccccc2Oc2ccc3nc(NC(=O)NC(C)(C)C)sc3c2)cc1 [9b]
**Query** Order the records so the highest pIC50 appears first and the lowest last. Give the order by naming the labels one after another as requested.
**Result** P, R, Q

---

Target: p38δ (Homo sapiens, UniProt O15264)
Construct: gene MAPK13
Sequence (O15264 whole entry): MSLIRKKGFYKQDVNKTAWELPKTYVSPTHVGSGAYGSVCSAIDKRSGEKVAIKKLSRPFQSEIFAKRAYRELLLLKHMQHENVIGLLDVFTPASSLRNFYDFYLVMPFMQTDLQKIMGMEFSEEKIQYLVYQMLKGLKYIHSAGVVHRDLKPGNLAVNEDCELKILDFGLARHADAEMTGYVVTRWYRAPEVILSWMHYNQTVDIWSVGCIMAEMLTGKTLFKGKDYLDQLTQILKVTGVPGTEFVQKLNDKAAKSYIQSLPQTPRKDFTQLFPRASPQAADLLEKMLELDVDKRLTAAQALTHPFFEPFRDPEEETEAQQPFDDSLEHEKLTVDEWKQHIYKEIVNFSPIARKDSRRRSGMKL
Assay: TR-FRET kinase assay, GFP-ATF2 ([…]-96) phosphorylation
Type: biochemical
endpoint: IC50 (nM)

(A) CCNC(=O)Nc1nc2ccc(Oc3ccccc3CNC(=O)Nc3cc(C(C)(C)C)nn3-c3ccc(C)cc3)cc2s1
(B) CCNC(=O)Nc1nc2ccc(Oc3ccc(F)cc3CNC(=O)Nc3cc(C(C)(C)C)nn3-c3ccc(C)cc3)cc2s1
**Query** Problem: Given the entries A and B , determine which has the lower reported IC50. Indicate your choice by writing its label.
**Result** A
(A: 231 nM, B: 948 nM)

---

Target: p38γ (Homo sapiens, UniProt P53778)
Construct: gene MAPK12
Sequence (P53778 whole entry): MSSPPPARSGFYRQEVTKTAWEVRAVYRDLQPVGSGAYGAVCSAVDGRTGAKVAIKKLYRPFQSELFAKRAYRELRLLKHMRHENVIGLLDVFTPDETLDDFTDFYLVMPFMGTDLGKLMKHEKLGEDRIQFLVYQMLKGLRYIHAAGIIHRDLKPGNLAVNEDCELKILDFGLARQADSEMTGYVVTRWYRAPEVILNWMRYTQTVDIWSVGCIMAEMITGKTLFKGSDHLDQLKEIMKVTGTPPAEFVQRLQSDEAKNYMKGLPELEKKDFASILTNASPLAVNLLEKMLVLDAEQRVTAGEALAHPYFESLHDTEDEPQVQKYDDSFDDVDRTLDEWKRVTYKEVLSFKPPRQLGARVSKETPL
Experiment: TR-FRET kinase assay, GFP-ATF2 ([…]-96) phosphorylation
Type: biochemical
endpoint: IC50 (nM)

(P) CCNC(=O)Nc1nc2ccc(Oc3ccc(F)cc3CNC(=O)Nc3cc(C(C)(C)C)nn3-c3ccc(C)cc3)cc2s1 [9g]
(Q) CCNC(=O)Nc1nc2ccc(Oc3ccccc3CNC(=O)Nc3cc(C(C)(C)C)nn3-c3ccc(C)cc3)cc2s1 [9d]
**Query** Hey, between P and Q which has a smaller measured IC50? Write down the label attached to your selection.
**Result** Q
(Q: 191 nM, P: 424 nM)

---

Biological target: MAPK14/p38α (Homo sapiens)
Assay: TR-FRET kinase assay, GFP-ATF2 ([…]-96) phosphorylation
Assay type: biochemical
pIC50: −log10 of the molar value.
endpoint: pIC50

COC(=O)Nc1nc2ccc(Oc3ccccc3CNC(=O)Nc3cc(C(C)(C)C)nn3-c3ccc([N+](=O)[O-])cc3)cc2s1 ... 8.88
Cc1ccc(-n2nc(C(C)(C)C)cc2NC(=O)NCc2cc(F)ccc2Oc2ccc3nc(N)sc3c2)cc1 ... 8.96
CCNC(=O)Nc1nc2ccc(Oc3ccccc3CNC(=O)Nc3cc(C(C)(C)C)nn3-c3ccc(C)cc3)cc2s1 ... 8.82
Cc1ccc(-n2nc(C(C)(C)C)cc2NC(=O)NCc2ccccc2Oc2ccc3nc(NC(=O)NC4CCCCC4)sc3c2)cc1 ... 8.35

(a) COC(=O)Nc1nc2ccc(Oc3ccc(F)cc3CNC(=O)Nc3cc(C(C)(C)C)nn3-c3ccc(C)cc3)cc2s1
(b) Cc1ccc(-n2nc(C(C)(C)C)cc2NC(=O)NCc2cc(F)ccc2Oc2ccc3nc(NC(=O)NC(C)(C)C)sc3c2)cc1
(c) COC(=O)Nc1nc2ccc(Oc3ccccc3CNC(=O)Nc3cc(C(C)(C)C)nn3-c3ccc(C)cc3)cc2s1
**Query** Returns the items ordered by pIC50, from maximum to minimum. // rank by listing labels in the order requested
**Result** c, a, b

---

Target: p38β (Homo sapiens, UniProt Q15759)
Construct: gene MAPK11
Sequence (Q15759 whole entry): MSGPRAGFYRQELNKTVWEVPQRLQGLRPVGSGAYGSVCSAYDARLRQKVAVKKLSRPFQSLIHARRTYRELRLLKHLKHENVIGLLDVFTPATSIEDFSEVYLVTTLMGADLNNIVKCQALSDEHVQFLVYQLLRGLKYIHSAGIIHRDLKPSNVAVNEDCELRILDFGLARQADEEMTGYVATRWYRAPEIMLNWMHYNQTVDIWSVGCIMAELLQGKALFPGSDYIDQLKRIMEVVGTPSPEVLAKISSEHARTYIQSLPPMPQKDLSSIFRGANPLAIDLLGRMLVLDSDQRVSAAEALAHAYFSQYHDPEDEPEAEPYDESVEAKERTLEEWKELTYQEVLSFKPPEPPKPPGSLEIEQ
Assay: TR-FRET kinase assay, GFP-ATF2 ([…]-96) phosphorylation
Format: biochemical
endpoint: IC50 (nM)

CCNC(=O)Nc1nc2ccc(Oc3ccc(F)cc3CNC(=O)Nc3cc(C(C)(C)C)nn3-c3ccc(C)cc3)cc2s1 [9g] ... 20.1
CCNC(=O)Nc1nc2ccc(Oc3ccccc3CNC(=O)Nc3cc(C(C)(C)C)nn3-c3ccc(C)cc3)cc2s1 [9d] ... 17.5

---

Biological target: MAPK14/p38α (Homo sapiens)
Test: TR-FRET kinase assay, GFP-ATF2 ([…]-96) phosphorylation
Assay type: biochemical
Details: read-out: p38α IC50 (nM) ^a
endpoint: IC50 (nM)
Output spec: scalar in nM, unitless text.

**Query** Which measured IC50 value corresponds to Cc1ccc(-n2nc(C(C)(C)C)cc2NC(=O)NCc2ccccc2Oc2ccc3nc(NC(=O)NCCCl)sc3c2)cc1 [9e] ?
**Result** 3.29
